Would you mind telling me the reported Polymorph Results, % Form B of each entry?
experimental-details: XRPD (Rietveld) polymorph determination of samples made by literature processes
Type: physicochemical
protocol-conditions: samples generated following referenced literature procedures; validated XRPD method
Give bare numbers, in %.

The compound listed as Fc1ccc(Cn2c(NC3CCNCC3)nc3ccccc32)cc1 [R1632-7A] shows Polymorph Results, % Form B equal to 86

According to the records, this compound Fc1ccc(Cn2c(NC3CCNCC3)nc3ccccc32)cc1 [H1632-5A] displays Polymorph Results, % Form B of 90

Measured Polymorph Results, % Form B of Fc1ccc(Cn2c(NC3CCNCC3)nc3ccccc32)cc1 [H1632-6A] : 100

Lab book: Polymorph Results, % Form B of Fc1ccc(Cn2c(NC3CCNCC3)nc3ccccc32)cc1 [H1632-4A] noted as 91

Turning to the following compound.
Fc1ccc(Cn2c(NC3CCNCC3)nc3ccccc32)cc1 [H1632-30A] has a reported Polymorph Results, % Form B of 100
